Values were extracted from ChEMBL document CHEMBL1121917.

# Species: Canis familiaris
# Assay info: Percent reduction in Uncinaria eggs per gram, after oral treatment of 100 mg/dog dose of compound in a single treatment
# Assay type: functional, Canis lupus familiaris, Egg
Assay endpoint: Reduction (%)
The answer is to be given in %; state only the numeric part.

O=[N+]([O-])c1ccc(N/N=C(\Cl)c2ccccc2)cc1	0

Reported Reduction for Cl/C(=N\Nc1ccccc1)c1ccc(I)cc1 : what is it?
41

====

# Tested on: Ovis aries
# Assay info: Percent reduction in Haemonchus eggs per gram, after treatment with 400 mg/kg dose of compound perorally in sheep
# Type: functional, Egg
# Condition info: route oral
Assay endpoint: Reduction (%)
Number only, in %; omit the unit.

Completed entries (count: 3):
CSc1ccc(/C(Cl)=N/Nc2ccccc2)cc1	100
Cl/C(=N\Nc1c(Cl)cc(Cl)cc1Cl)c1ccccc1	85
Fc1c(F)c(F)c(/C(Cl)=N/Nc2ccccc2)c(F)c1F	96

Entry FC(F)(F)c1cccc(/C(Cl)=N/Nc2ccccc2)c1 : reported Reduction = ?
100
